# Tested on: INS1
# PROTOCOL NOTES: INS-1E survival protection against cytokine death – cell-based, luminescence, retest, dose response (AID 449756);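 note: cell death triggered by IL-1 beta plus TNF-alpha plus IFN-gamma mixture; protective hits raise ATP signal compared with cytokine alone wells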
# Assay type: functional
# ASSAY SETUP: Rattus norvegicus
Calls of active or inactive are those of the source.
MEASURED PARAMETER: AC50

Cc1nn(-c2nc3ccccc3[nH]2)c(=O)c2ccccc12; 1300 nM (active)
CN1/C(=C\C(=S)NC(=O)c2ccccc2Cl)C(C)(C)c2ccccc21; 8030 nM (active)
CCS(=O)(=O)c1ncc(Cl)c(C(=O)Nc2ccc(S(=O)(=O)N3CCCC(C)C3)cc2)n1 (stereo not given); 4760 nM (active)
Cc1ccc(O)c(N=Nc2nccs2)c1; 1150 nM (active)
C=C1C(=O)O[C@@H]2C[C@@H](C)[C@@H]3C=CC(=O)[C@@]3(C)[C@@H](OC(=O)CC(=O)O[C@H]3[C@@H]4C(=C)C(=O)O[C@@H]4C[C@@H](C)[C@@H]4C=CC(=O)[C@]43C)[C@H]12; 312 nM (active)

###

Measured IC50 of individual entries
# TARGET ENTITY: Type-1 angiotensin II receptor (Homo sapiens)
# Sequence (P30556 whole entry): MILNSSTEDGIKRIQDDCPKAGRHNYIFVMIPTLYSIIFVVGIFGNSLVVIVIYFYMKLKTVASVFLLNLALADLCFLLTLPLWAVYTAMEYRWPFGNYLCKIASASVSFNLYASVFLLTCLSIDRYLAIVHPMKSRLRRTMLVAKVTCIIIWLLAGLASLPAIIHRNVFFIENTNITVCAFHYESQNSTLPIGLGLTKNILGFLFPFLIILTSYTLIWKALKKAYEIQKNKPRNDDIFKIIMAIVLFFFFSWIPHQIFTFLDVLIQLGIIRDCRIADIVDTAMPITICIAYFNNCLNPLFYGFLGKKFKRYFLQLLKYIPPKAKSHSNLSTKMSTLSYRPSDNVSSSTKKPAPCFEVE
# PROTOCOL NOTES: antagonism of angiotensin II type 1 receptor – cell-based, uHTS hits, selectivity assay for APJ receptor antagonist project, dose response (AID 463214);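 note: antagonist potency against angiotensin II stimulated AT1 response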
# Assay type: functional
Activity calls are given as the source filed them.
MEASURED PARAMETER: IC50

CCCSc1cc(NCCOC(=O)CCC)c([N+](=O)[O-])c2nonc12; 11 µM (active)
COc1ccc(C(=O)/C=C/C(=O)N(CC(=O)NC2CCCCC2)CC2CCCO2)c(O)c1 (stereo not given); 5.35 µM (active)
CC(C)c1nc(C#N)c(NN)o1; 25.3 µM (not active)
C=C1C(=O)O[C@@H]2C[C@@H](C)[C@@H]3C=CC(=O)[C@@]3(C)[C@@H](OC(=O)CC(=O)O[C@H]3[C@@H]4C(=C)C(=O)O[C@@H]4C[C@@H](C)[C@@H]4C=CC(=O)[C@]43C)[C@H]12; 6.05 µM (active)
CCS(=O)(=O)c1ncc(Cl)c(C(=O)Nc2ccc(S(=O)(=O)N3CCCC(C)C3)cc2)n1 (stereo not given); 2.18 µM (active)

###

# TARGET ENTITY: RNA-binding protein pos-1 (Caenorhabditis elegans, UniProt G5EF15)
# Sequence (G5EF15 whole entry, the tested form may be a part): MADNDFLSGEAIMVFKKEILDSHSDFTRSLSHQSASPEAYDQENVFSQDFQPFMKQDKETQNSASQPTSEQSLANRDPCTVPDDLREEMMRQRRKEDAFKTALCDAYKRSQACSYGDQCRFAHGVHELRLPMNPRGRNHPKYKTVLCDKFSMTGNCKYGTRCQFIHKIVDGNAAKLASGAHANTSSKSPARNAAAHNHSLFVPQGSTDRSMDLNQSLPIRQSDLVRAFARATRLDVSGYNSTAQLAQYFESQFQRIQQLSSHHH
# PROTOCOL NOTES: disruptors of C. elegans POS-1 RNA interaction – biochemical, fluorescence polarization, dose response (AID 1964);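 note: purified POS-1 fused to maltose binding protein made in E. coli; potency of compounds blocking POS-1 binding to fluorescent RNA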
The source made the active and inactive calls.
Measured EC50 of individual entries
MEASURED PARAMETER: EC50

CCc1ccccc1N1C(=O)/C(=C/c2ccc(N3CCN(C)CC3)o2)C(=O)NC1=S; > 300 µM (inconclusive)
N#CC(C#N)=Cc1cccn1-c1ccc(C(=O)O)cc1; > 300 µM (not active)
COc1ccc(NC(=O)Nc2cc(C)cc(C)c2)cn1; 186 µM (active)
CCC(C)/C=C(C)/C=C/C1=CC2=C(Cl)C(=O)C(C)(OC(C)=O)C(=O)C2=CO1 (stereo unspecified); > 300 µM (not active)
COc1cc(/C=C2/C(=O)ON=C2C)ccc1OCc1ccccc1F; 60.2 µM (active)
COc1ccc(NC(=O)C2Cc3ccccc3CN2C(=O)c2ccccc2)cn1 (stereo unspecified); 25.1 µM (active)
O=c1oc2ccc(Cl)cc2nc1/C=C(\O)c1cccs1; 230 µM (active)
O=C(/C=C/c1ccco1)NC(=S)NNC(=O)c1ccco1; 98.1 µM (active)
CCOc1ccc2ccccc2c1C1NC(=O)N(C)C(C)=C1C(=O)OCCOC (stereo unspecified); > 300 µM (not active)
Cc1nnc(S)c2nn(-c3cccc(Cl)c3)c(C)c12; 137 µM (active)
Cc1c(C(=O)O)cccc1-n1c(C)cc(/C=C(/C#N)C(=O)NCc2ccccc2)c1C; > 300 µM (not active)
